Where these numbers come from: patent US20250059153A1

Tested on: Trypanosoma cruzi trypomastigote
Test: Antiparasitic activity against Trypanosoma cruzi trypomastigote (viability by mobility under optical microscope)
Type: cell-based
Details: LLC-MK2, trypomastigotes from infected LLCMK2 cells, 1×10^7 parasites/mL, 24 h at 37° C.
Description: Antiparasitic Activity Against Trypanosoma cruzi To evaluate antiparasitic activity against Trypanosoma cruzi trypomastigote, parasites were obtained from the supernatant of infected LLCMK2 cells. Trypomastigote (1×10^7 parasites/mL) was resuspended in DMEM supplemented with 10% FBS. […] After incubation, the viability of the parasites was determined by examining mobility under an optical microscope. […]
result type: EC50 (nM)
Numbers only; they are read as nM.

The reported Trypanosoma cruzi trypomastigote EC50 of Cc1cc(=O)c2occoc=2c1=O [Compound A1, 6-methylbenzo[b][1,4]dioxine-5,8-dione] is 2300
